# Target Desc: Recombinant human Mat2a (Homo sapiens (Human), UniProt P31153)
# Sequence (P31153 whole entry): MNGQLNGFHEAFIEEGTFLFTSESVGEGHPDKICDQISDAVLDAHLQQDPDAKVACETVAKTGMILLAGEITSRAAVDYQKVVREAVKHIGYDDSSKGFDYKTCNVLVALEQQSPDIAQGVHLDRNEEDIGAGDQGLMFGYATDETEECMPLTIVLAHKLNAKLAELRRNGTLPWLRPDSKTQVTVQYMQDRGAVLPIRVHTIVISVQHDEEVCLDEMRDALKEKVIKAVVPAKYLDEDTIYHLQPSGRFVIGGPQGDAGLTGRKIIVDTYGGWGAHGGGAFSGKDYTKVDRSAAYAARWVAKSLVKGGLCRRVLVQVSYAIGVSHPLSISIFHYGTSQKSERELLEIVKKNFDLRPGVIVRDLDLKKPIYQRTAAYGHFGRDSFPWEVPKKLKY
# Assay Procedure: Determination of Mat2A activity (384 well absorbance-based assay, Biomol Green)
# Format: biochemical
# Condition Label: 12.5 nM Mat2A, 100 μM ATP and Methionine, 2% DMSO, 120 minutes at RT, absorbance at 635 nm; read-out: MAT2A_LEC IC50 (uM) (Num)
# Experimental: Determination of Mat2A Activity Measurement of Mat2A inhibition is performed in 384 well format absorbance-based assay. […] The absorbance signal is measured at λ=635 nm with a multiplate reader (BMG Pherastar reader or equivalent) after 30 min of equilibration at RT.
Answer each item with its documented log10(IC50).
Give log10 of IC50, with IC50 taken in µM.

Request: Form field: reported log10(IC50) of Cc1cc(-c2c(C(=O)N(C)C)ncc3[nH]nc(C4CC4)c23)ccc1S(C)(=O)=O
Result: -0.30

Request: Form field: reported log10(IC50) of CC(=O)NCCCCNc1cnc(-c2ccc(S(C)(=O)=O)c(C)c2)c2c(C3CC3)n[nH]c12
Result: -1.40

Request: Form field: reported log10(IC50) of COCc1ncc2[nH]nc(C3CC3)c2c1-c1ccc(S(C)(=O)=O)c(C)c1
Result: -0.85

Request: Form field: reported log10(IC50) of Cc1cc(-c2nccc3[nH]nc(C#N)c23)ccc1S(C)(=O)=O
Result: -0.60

Request: Form field: reported log10(IC50) of CS(=O)(=O)c1ccc(-c2nccc3[nH]nc(C4CC4)c23)cc1Cl
Result: -0.82

Request: Form field: reported log10(IC50) of Cc1cc(-c2c(S(C)(=O)=O)ccc3[nH]nc(C(F)(F)F)c23)ccc1S(C)(=O)=O
Result: -1.77

Request: Form field: reported log10(IC50) of CCCS(=O)(=O)c1ccc(-c2nccc3[nH]nc(OC(F)F)c23)cc1C
Result: -1.24

Request: Form field: reported log10(IC50) of Cc1cc(-c2ncc(F)c3[nH]nc(C4CC4)c23)ccc1S(C)(=O)=O
Result: -1.60

Request: Form field: reported log10(IC50) of Cc1cc(-c2c(C3CC3)ncc3[nH]nc(C4CC4)c23)ccc1S(C)(=O)=O
Result: -1.70

Request: Form field: reported log10(IC50) of Cc1cc(-c2ncc(NCCOCCN)c3[nH]nc(C4CC4)c23)ccc1S(C)(=O)=O
Result: -0.85

Request: Form field: reported log10(IC50) of Cc1cc(-n2c(=O)ccc3[nH]cc(C4CC4)c32)ccc1S(C)(=O)=O
Result: -1.54

Request: Form field: reported log10(IC50) of Cc1cc(-c2nccc3[nH]nc(OC(F)F)c23)ccc1S(=O)(=O)C(F)F
Result: -1.89

Request: Form field: reported log10(IC50) of CNC(=O)c1ncc2[nH]nc(OC(F)F)c2c1-c1ccc(S(=O)(=O)C(F)F)c(C)c1
Result: -1.82

###

Answer each item with its documented IC50.
# Target Desc: Recombinant human Mat2a (Homo sapiens (Human), UniProt P31153)
# Assay Procedure: Determination of Mat2A activity (384 well absorbance-based assay, Biomol Green)
# Assay type: biochemical
# Condition Label: 12.5 nM Mat2A, 100 μM ATP and Methionine, 2% DMSO, 120 minutes at RT, absorbance at 635 nm; read-out: MAT2A_LEC IC50 (uM) (Num)

Request: Form field: reported IC50 of CNC(=O)c1ncc2[nH]nc(C3CC3)c2c1-c1ccc(S(=O)(=O)C2CC2)c(C)c1 [Example 46]
Result: < 0.013 µM

Request: Form field: reported IC50 of Cc1cc(-c2nccc3[nH]nc(OC(F)F)c23)ccc1S(C)(=O)=O
Result: < 0.013 µM

Request: Form field: reported IC50 of Cc1cc(-c2c(C#N)ncc3[nH]nc(C4CC4)c23)ccc1S(C)(=O)=O
Result: < 0.013 µM

###

# Target Desc: Recombinant human Mat2a (Homo sapiens (Human), UniProt P31153)
# Assay Procedure: Determination of Mat2A activity (384 well absorbance-based assay, Biomol Green)
# Format: biochemical
# Condition Label: 12.5 nM Mat2A, 100 μM ATP and Methionine, 2% DMSO, 120 minutes at RT, absorbance at 635 nm; read-out: MAT2A_LEC IC50 (uM) (Num)
# Procedure: Determination of Mat2A Activity Measurement of Mat2A inhibition is performed in 384 well format absorbance-based assay. […] The absorbance signal is measured at λ=635 nm with a multiplate reader (BMG Pherastar reader or equivalent) after 30 min of equilibration at RT.
Metric: IC50 (µM)
Give your result in µM as a bare value.

Request: Form field: reported IC50 of CN(C)S(=O)(=O)c1ccc(-c2nccc3[nH]nc(C4CC4)c23)cc1Cl
Result: 0.24

Request: Form field: reported IC50 of CN(C)S(=O)(=O)c1ccc(-c2nccc3[nH]nc(OC(F)F)c23)cc1C(F)F
Result: 0.13

Request: Form field: reported IC50 of CNS(=O)(=O)c1ccc2[nH]nc(C3CC3)c2c1-c1ccc(S(C)(=O)=O)c(C)c1
Result: 0.03

Request: Form field: reported IC50 of Cc1cc(-c2nccc3[nH]nc(C(F)F)c23)ccc1S(C)(=O)=O
Result: 0.095

Request: Form field: reported IC50 of Cc1cc(-c2c(S(C)(=O)=O)ccc3[nH]nc(OC(F)F)c23)c(F)cc1S(C)(=O)=O
Result: 0.02

Request: Form field: reported IC50 of Cc1cc(-c2nccc3[nH]nc(S(C)(=O)=O)c23)ccc1S(C)(=O)=O
Result: 0.29

Request: Form field: reported IC50 of CSc1ccc2[nH]nc(C3CC3)c2c1-c1ccc(S(C)(=O)=O)c(C)c1
Result: 0.013

###

# Target Desc: Recombinant human Mat2a (Homo sapiens (Human), UniProt P31153)
# Assay Procedure: Determination of Mat2A activity (384 well absorbance-based assay, Biomol Green)
# Format: biochemical
# Condition Label: 12.5 nM Mat2A, 100 μM ATP and Methionine, 2% DMSO, 120 minutes at RT, absorbance at 635 nm; read-out: MAT2A_LEC IC50 (uM) (Num)
Where a name gives a salt, the structure may show the parent alone.
Answer each item with its documented IC50.

Request: Checklist item: IC50 tested on Recombinant human Mat2a (Homo sapiens (Human), UniProt P31153), entry CCS(=O)(=O)c1ccc(-c2nccc3[nH]nc(OC(F)F)c23)cc1C , value?
Result: < 0.013 µM

Request: Checklist item: IC50 tested on Recombinant human Mat2a (Homo sapiens (Human), UniProt P31153), entry COc1n[nH]c2ccc(C#N)c(-c3ccc(S(C)(=O)=O)c(C)c3)c12 , value?
Result: < 0.013 µM

Request: Checklist item: IC50 tested on Recombinant human Mat2a (Homo sapiens (Human), UniProt P31153), entry Cc1cc(-c2nccc3[nH]nc(C(C)(F)F)c23)ccc1S(C)(=O)=O , value?
Result: < 0.013 µM

Request: Checklist item: IC50 tested on Recombinant human Mat2a (Homo sapiens (Human), UniProt P31153), entry Cc1cc(-c2c(C#N)ccc3[nH]nc(C4CC4)c23)ccc1S(C)(=O)=O , value?
Result: < 0.013 µM

Request: Checklist item: IC50 tested on Recombinant human Mat2a (Homo sapiens (Human), UniProt P31153), entry CNC(=O)c1ncc2[nH]nc(OC(F)F)c2c1-c1ccc(S(C)(=O)=O)c(C)c1 , value?
Result: < 0.013 µM

Request: Checklist item: IC50 tested on Recombinant human Mat2a (Homo sapiens (Human), UniProt P31153), entry COc1ncc2[nH]nc(C(F)(F)F)c2c1-c1ccc(S(C)(=O)=O)c(C(F)F)c1 , value?
Result: 0.015 µM

Request: Checklist item: IC50 tested on Recombinant human Mat2a (Homo sapiens (Human), UniProt P31153), entry Cc1cc(-c2nccc3[nH]nc(C4CC4)c23)c(F)cc1S(C)(=O)=O , value?
Result: 0.056 µM

Request: Checklist item: IC50 tested on Recombinant human Mat2a (Homo sapiens (Human), UniProt P31153), entry Cc1cc(-c2c(C(N)=O)ncc3[nH]nc(OC(F)F)c23)ccc1S(C)(=O)=O , value?
Result: < 0.013 µM

Request: Checklist item: IC50 tested on Recombinant human Mat2a (Homo sapiens (Human), UniProt P31153), entry Cc1cc(-c2c(C(N)=O)ncc3[nH]nc(OC(F)F)c23)ccc1S(=O)(=O)C1CC1 , value?
Result: < 0.013 µM

Request: Checklist item: IC50 tested on Recombinant human Mat2a (Homo sapiens (Human), UniProt P31153), entry CNC(=O)c1ncc2[nH]nc(C3CC3)c2c1-c1cc(C)c(S(C)(=O)=O)cc1F , value?
Result: < 0.013 µM

Request: Checklist item: IC50 tested on Recombinant human Mat2a (Homo sapiens (Human), UniProt P31153), entry Cc1cc(-c2nccc3[nH]nc(C4CC4)c23)ccc1S(=O)(=O)C1COC1 , value?
Result: 0.27 µM

Request: Checklist item: IC50 tested on Recombinant human Mat2a (Homo sapiens (Human), UniProt P31153), entry Cc1cc(-c2nccc3[nH]nc(C4CC4)c23)ccc1[S+](C)[O-] (stereo not drawn) [Example 23, hydrochloride] , value?
Result: 0.083 µM
